B1: tRNA (parent)
chain: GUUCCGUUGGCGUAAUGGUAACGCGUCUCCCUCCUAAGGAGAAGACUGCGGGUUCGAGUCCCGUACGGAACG

variants of: B1; test: yeast fitness relative to wild type (ratio to wild type); higher = fitter; tRNA-Arg(CCU), competitive growth, 37 C, YPD
This sample holds only a part of the variants without activity.
// label = Satisfied if yeast fitness is not less than 0.6, otherwise Not satisfied

Use these answered entries as a reference point.
C24U C61G G63C; Not satisfied
C5U U13G A69U; Satisfied
G9A C62U; Satisfied
G12C C27A A37G C49U; Not satisfied

For this variant, is measured yeast fitness 0.6 or higher? C27A
Satisfied

For this variant, is measured yeast fitness 0.6 or higher? A20U G63C
Satisfied

For this variant, is measured yeast fitness 0.6 or higher? U32G C61U C66U
Not satisfied

For this variant, is measured yeast fitness 0.6 or higher? A15U C31U G52A A57U G58C
Not satisfied

For this variant, is measured yeast fitness 0.6 or higher? U3A G51A A65G A69U
Satisfied

For this variant, is measured yeast fitness 0.6 or higher? G9C C33A A70C
Satisfied

For this variant, is measured yeast fitness 0.6 or higher? C27A A45G G48C
Not satisfied

For this variant, is measured yeast fitness 0.6 or higher? G9A C29U C46U C66U
Satisfied
